Source: ChEMBL document CHEMBL1201862

# Tested on: EKVX
# measurement-description: NCI tumour cell line growth inhibition, 48 h
The source made the active and inactive calls. Cut-off read from the data, not from the text of the source: active = GI50 up to about 1.1 µM and inactive = higher.
Returns: one label drawn from 1 (yes) for active, 0 (no) for inactive

compound	tested-on	group
COC(=O)c1ccc(/C=C/S(=O)(=O)c2ccccc2)cc1	EKVX	0 (no)

Inquiry: Fill in: this test's call for O=C1NC2C(=CC(O)C(O)C2O)c2cc3c(cc21)OCO3 (configuration not stated) is ___
Reply text: 1 (yes)

Inquiry: Fill in: this test's call for CC(=O)OC(C)C(=O)C1c2cccc(O)c2C(=O)c2c(O)cc(C)cc21 (configuration not stated) is ___
Reply text: 0 (no)

* * *

# Test system: HL-60
# measurement-description: NCI tumour cell line growth inhibition, 48 h
Activity calls are given as the source filed them. Cut-off read from the data, not from the text of the source: active = GI50 up to about 1.1 µM and inactive = higher.
Returns: one label drawn from Yes (active), No (inactive)

Example entries and their recorded answers appear below.
molecule	group
O=P(c1ccccc1)(c1ccccc1)C(NCc1ccccc1)c1ccc(F)cc1 (stereo not given)	No
O=c1c2ccccc2n2n1Cc1ccccc1C2	No
O=C(O)c1ccccc1/N=N/c1ccc2oc(=O)c(C(=O)Nc3ccccc3)cc2c1	No

Inquiry: Fill in: this test's call for `O=C1C(=O)c2c(oc(=O)c3ccccc23)-c2ccccc21` is ___
Reply text: No

Inquiry: Fill in: this test's call for `O=S(=O)(N/C(=N\O)Nc1ccc(Cl)cc1)c1cc2ccccc2s1` is ___
Reply text: No

Inquiry: Fill in: this test's call for `C/C(=N\Nc1nc2ccccc2s1)c1ncccn1` is ___
Reply text: Yes

Inquiry: Fill in: this test's call for COc1cc(C=C2C(C)=NN(c3cccc(Cl)c3)C23C(Cl)C(=O)N3c2nc3ccccc3s2)ccc1O (stereo not given) is ___
Reply text: Yes

Inquiry: Fill in: this test's call for [N-]=[N+]=CC(=O)CCC(NC(=O)C(CCC(=O)C=[N+]=[N-])NC(=O)CCC(N)C(=O)O)C(=O)O (stereo not given) is ___
Reply text: No

Inquiry: Fill in: this test's call for `COC(=O)C#CC(N)=O` is ___
Reply text: No

Inquiry: Fill in: this test's call for CC1C2CC(C(C3C(=O)C4CC3C(C)(C)C4C)C2=O)C1(C)C (stereo not given) is ___
Reply text: No

* * *

# Tested on: UO-31
# measurement-description: NCI tumour cell line growth inhibition, 48 h
Activity calls are given as the source filed them. No stated cut-off is given here; in the data, active = GI50 up to about 1.1 µM and inactive = higher.
Listing: GI50 of selected compounds

Solved entries (count: 5):
compound	measured-metric	data-value
Cc1n[nH]c(=O)n1/N=C\CC/C=N\n1c(C)n[nH]c1=O	GI50	> 100 µM (inactive)
COC(=O)C(/C(=N/N)C(=O)Nc1cc(Cl)ccc1Cl)c1nc2ccc([N+](=O)[O-])cc2nc1O (stereo unspecified)	GI50	40 µM (inactive)
COc1ccc2c(=O)cc(-c3ccncc3)oc2c1OC	GI50	19.7 µM (inactive)
CN[C@@H](C)[C@@H](NC)c1ccccc1	GI50	> 100 µM (inactive)
O=C1c2ccccc2C(=O)N1CCN(CCN1C(=O)c2ccccc2C1=O)Cn1cccn1	GI50	> 100 µM (inactive)

Now look at this one.
Inquiry: GET GI50 | system: UO-31 | item: CCOC(=O)/C=C1\Oc2ccccc2C1(C)O (stereo unspecified)
Reply text: > 100 µM (inactive)

* * *

# Tested on: MDA-N
# measurement-description: NCI tumour cell line growth inhibition, 48 h
Activity calls are given as the source filed them. No stated cut-off is given here; in the data, active = GI50 up to about 1.1 µM and inactive = higher.
measured-metric: GI50

Inquiry: Name the recorded GI50 of the item C[As](C)SCC(NC(=O)CCC(N)C(=O)O)C(=O)NCC(=O)O.c1ccncc1 (stereo not given) in your answer.
Reply text: 0.0431 µM (active)

Inquiry: Name the recorded GI50 of the item `O=C1NC(=S)N/C1=C\c1cccs1` in your answer.
Reply text: > 100 µM (inactive)

Inquiry: Name the recorded GI50 of the item `O=C(c1ccccc1)c1c(-c2ccccc2)[nH]n(-c2ccc([N+](=O)[O-])cc2)c(=O)c1=O` in your answer.
Reply text: > 100 µM (inactive)

Inquiry: Name the recorded GI50 of the item `O=C(c1c(F)c(F)c(F)c(F)c1F)n1c(=S)n(C(=O)c2c(F)c(F)c(F)c(F)c2F)c2ccccc21` in your answer.
Reply text: > 100 µM (inactive)

Inquiry: Name the recorded GI50 of the item `CCN1CCCc2cc3c(C(F)(F)F)cc(=O)oc3cc21` in your answer.
Reply text: > 100 µM (inactive)
